Listing: cytotoxicity at 70.5 h of selected molecules
Assay: Human HepG2 cell viability assay in 384 well format
Format: toxicity, cell-based
Set-up: dose 125 nL, time 70.5 hour; concentration not given beside the values
Conditions: HepG2 cells, read-out: Inhibition
Numbers only here, please. The scale is %.

Some entries whose results are on file:
1. CN(C)[C@@H]1CCN(C(=O)c2ccccn2)[C@H]1Cc1ccncc1	-13
2. Cc1cnn(CCC(=O)N2CCN(c3ccc(C#N)cn3)CC2)c1	-3.08
3. CN(Cc1noc(C2CC2)n1)C1CCN(Cc2ccncc2)C1 (stereo unspecified)	-9.86

Given the entry O=C(NCCc1ccccc1)NCC(O)c1cccc(F)c1 (stereo unspecified) , report its measured cytotoxicity at 70.5 h. -3.34

Which measured cytotoxicity at 70.5 h value corresponds to `Cc1ccc(C)c(Oc2cc(-n3nc(C)c(C#N)c3N)nc(C)n2)c1` ? -6.07

I'd like to know its cytotoxicity at 70.5 h. The molecule in question is `CN(Cc1cccnc1)C1CC2(CCN(C(=O)c3cscn3)CC2)C1` 8.2

Record request: cytotoxicity at 70.5 h value, item O=C(c1cccc2c1OCO2)N1CCCC1c1noc(C2CC2)n1 (stereo unspecified) 31.3

Which cytotoxicity at 70.5 h value is on record for `O=C(NCCc1cccs1)[C@]12COC[C@H]1CN(c1ncccn1)C2` ? -13.7

So what does the record say about cytotoxicity at 70.5 h for `COCc1noc(C2(c3cccc(Cl)c3)CCOCC2)n1` ? 26.5

I would be grateful if you could share the reported cytotoxicity at 70.5 h for `COc1cccc(C(=O)N2CCN(Cc3nc(C(C)C)no3)CC2)c1` . -5.91

Recorded cytotoxicity at 70.5 h of `COc1ccc(CN(C)C2CCN(S(C)(=O)=O)CC2)c2cccnc12` , please. -1.77

----------
Assay: Human HepG2 cell viability assay in 384 well format
Assay type: toxicity, cell-based
Design: dose 125 nL, time 70.5 hour; concentration not given beside the values
Conditions: HepG2 cells, read-out: Inhibition
This listing pairs compounds with measured cytotoxicity at 70.5 h.
Report the value in % with no unit label.

Examples from the recorded data:
1) CN1CC(Oc2ccc(Cl)cc2)=NC(SCC(=O)c2ccccc2)=N1	14.8
2) CN(C)C(=O)Cn1c(C2CC2)c(CN2CCSCC2)c2cccnc21	1.03

Query (compound): `COc1cccnc1NC(=O)c1ccc(COCC(F)(F)F)cc1` ; field requested: cytotoxicity at 70.5 h -8.83

Need cytotoxicity at 70.5 h of CCC(CC)n1nc(C)cc1NC(=O)C1CCCO1 (configuration not stated) , thanks. -8.67

----------
Entries annotated with measured cytotoxicity at 70.5 h
Test: Human HepG2 cell viability assay in 384 well format
Type: toxicity, cell-based
Set-up: dose 125 nL, time 70.5 hour; concentration not given beside the values
Conditions: HepG2 cells, read-out: Inhibition
Response body: numeric value in %, unit text excluded.

1) COCCc1noc(CN2CCC(c3ccccc3C(=O)O)C2)n1 (stereo unspecified)	-20.1
2) CCC[C@H]1CN(S(=O)(=O)c2ccccc2)C[C@@H]1N	16.4

Recorded cytotoxicity at 70.5 h for O=C(C1CC1)N1CCC(c2nc(O)c3c(n2)CCN(C2CCCC2)C3)C1 (stereo unspecified) , please? -6.87

# lookup: cytotoxicity at 70.5 h of `CN(C)S(=O)(=O)N1CC[C@]2(O)CCN(Cc3cccc(F)c3)C[C@@H]2C1` -6.74

Form field: reported cytotoxicity at 70.5 h of Cn1cccc1C(=O)N1CCCCC1c1ccn2ccnc2n1 (stereo unspecified) -1.33

Could you tell me which cytotoxicity at 70.5 h is on file for CCOCCN(C)C(c1cccnc1)c1ccc(F)cc1F (stereo unspecified) ? -3.04

----------
Each entry below carries its recorded cytotoxicity at 70.5 h.
Assay: Human HepG2 cell viability assay in 384 well format
Assay type: toxicity, cell-based
Set-up: dose 125 nL, time 70.5 hour; concentration not given beside the values
Conditions: HepG2 cells, read-out: Inhibition
Number plus unit, in that order.

1) CCCN1CCC2(C1)c1ccccc1S(=O)(=O)N2Cc1ccccc1 (centres undefined)	3.08%
2) COc1cccc2c1ccn2CC(=O)N1CCCC(C(=O)O)C1 (centres undefined)	21.4%
3) CC(C)c1ccc(NC(=O)Cn2cc(I)cn2)cc1	-24.1%

# lookup: cytotoxicity at 70.5 h of Cc1nc(C2CCCN(C(=O)c3ccco3)C2)no1 (centres undefined) 24%

State the recorded cytotoxicity at 70.5 h for this entry: `O=C(NCCCn1nc2ccccn2c1=O)NCc1ccccc1` -0.996%

----------
Test: Human HepG2 cell viability assay in 384 well format
Type: toxicity, cell-based
Design: dose 125 nL, time 70.5 hour; concentration not given beside the values
Details: HepG2 cells, read-out: Inhibition
Endpoint: cytotoxicity at 70.5 h (%)
Hi! Could you send only the number? It should be in %, unit omitted.

Known cytotoxicity at 70.5 h results, listed for orientation:
1. c1ccc(-c2nc(CN3CCCC(Cn4cncn4)C3)no2)cc1 (stereo not drawn)	2.09
2. O=C(CC1CCCC1)N1C[C@@H]2C[C@H]1CN2	-3.6
3. O=C(NCc1ccc(N2CCSCC2)cc1)NCc1cc[nH]n1	-10.4

What does the record list as cytotoxicity at 70.5 h for CN(C)C(CNC(=O)OCC(F)(F)F)c1ccsc1 (stereo not drawn) ? -8.54

Can you look up the measured cytotoxicity at 70.5 h of CC(=O)Nc1nc(C(=O)N2CCCC(c3cc(C)[nH]n3)C2)cs1 (stereo not drawn) for me? -0.899

What value of cytotoxicity at 70.5 h has been reported for the following compound? `O=C(Nc1ccc(F)cc1)NC1(CCO)CCOCC1` -7.29

Quick one: cytotoxicity at 70.5 h for `CN(C(=O)CCN1CCCC1=O)c1cc(C#N)c2ccccc2n1` ? 4.42

Which cytotoxicity at 70.5 h value is on record for `O=C(c1ccco1)N1C[C@@H]2[C@@H](C1)OCC(=O)N2Cc1cccnc1` ? 7.81

----------
Test: Human HepG2 cell viability assay in 384 well format
Type: toxicity, cell-based
Set-up: dose 125 nL, time 70.5 hour; concentration not given beside the values
Conditions: HepG2 cells, read-out: Inhibition
Endpoint: cytotoxicity at 70.5 h (%)
I only need the number, in %, no unit after it.

Recorded results for 5 compounds are shown here.
1. CNC(=O)CCc1cc(C2CCCN2S(C)(=O)=O)nc(C)n1 (configuration not stated)	-12.2
2. CC(C)N1CCN(C(=O)C(C)n2cncn2)CC1 (configuration not stated)	5.67
3. COc1ccccc1CN(Cc1nc(C)no1)C1CC1	-20.3
4. COc1cccc(S(=O)(=O)CCNC(C)Cn2cccn2)c1 (configuration not stated)	4.6
5. Cc1noc(C)c1CC(=O)N1CCN(Cc2cscn2)CC1	-1.94

Switching to the query record.
cytotoxicity at 70.5 h for `O=C(c1cccnc1)N1CCN2C[C@H](Oc3cncnc3)C[C@H]2C1` ? -1.31

----------
The molecules listed here are annotated with their cytotoxicity at 70.5 h.
Assay: Human HepG2 cell viability assay in 384 well format
Type: toxicity, cell-based
Set-up: dose 125 nL, time 70.5 hour; concentration not given beside the values
Settings: HepG2 cells, read-out: Inhibition
Your answer is read as %, so omit the unit and give the number.

Which cytotoxicity at 70.5 h is reported for this molecule? COc1cc(C)c(C(C)NC(=O)Nc2nnc(C)s2)cc1OC (stereo unspecified) -11.5

----------
Assay: Human HepG2 cell viability assay in 384 well format
Type: toxicity, cell-based
Set-up: dose 125 nL, time 70.5 hour; concentration not given beside the values
Conditions: HepG2 cells, read-out: Inhibition
Endpoint: cytotoxicity at 70.5 h (%)
Your answer is read as %, so omit the unit and give the number.

Guide cases for cytotoxicity at 70.5 h, answers given:
1. COCC(=O)N1CCC(c2nc3ccc(N4CCOCC4)cn3n2)CC1	-2.79
2. Cn1nnc2c1CCN(C(=O)CC1CC1)C2COCCN1CCCC1 (centres undefined)	8.05
3. O=C(Cc1ccccn1)N1CCC2(CC1)[C@H](O)C[C@@H]2O	-12.4
4. CC(C)SCC(=O)N1CCCn2nc(C(=O)Nc3ccccc3)cc2C1	6.99
5. Cc1nn(C)c2nc(N3CCC(C(O)Cc4ccccc4)CC3)sc12 (centres undefined)	-2.11
6. COCCN(C)C[C@@H]1CN(c2cc(C)nc3ccccc23)C[C@@H]1CO	-14.9
7. CCn1cc(NC(=O)C2CCN(CC(=O)NC3CCCC3)CC2)cn1	-0.528
8. CC(C)N(C)[C@@H]1CCN(Cc2ccco2)[C@H]1Cc1ccccc1	38.2
9. Cc1ccc(C(=O)NCCC(C)C)cc1NS(C)(=O)=O	-10
10. CN(C)Cc1cc(-c2nccn2CCn2cccn2)ccc1O	-11.1

I'd like to know its cytotoxicity at 70.5 h. The compound in question is `COc1ccc(CN2CC[C@@H](O)[C@@H]2Cc2cnn(C)c2)cc1` 21.7

Entry under review: CC1CN(CCc2ccncc2)CCO1 (centres undefined) . Reported cytotoxicity at 70.5 h? 3.7

May I ask what cytotoxicity at 70.5 h has been recorded for `Cc1cc(C(=O)Nc2ccn(CCCN3CCCC3)n2)c(C)o1` ? -0.537

Quick one: cytotoxicity at 70.5 h of `CCCNC(=O)c1ccc(NC(=O)c2cccc(OCC)c2)cc1` ? -7.63

Requested read-out: cytotoxicity at 70.5 h. Entry: `O=C1CCC(=O)N1CCN1CCC(=Cc2ccccc2)CC1` -0.346

Can you share its cytotoxicity at 70.5 h? I mean this compound: `CC(C)c1cc(NC(=O)c2ccncc2)[nH]n1` 2.62

Entry under review: `Cc1ccc(OCC(=O)NCc2ccccc2F)nc1` . Reported cytotoxicity at 70.5 h? -2.31

Consider the compound shown here: COc1cccc(-c2cnnc(N(C)CCC3CCCCO3)n2)c1 (centres undefined) What is its recorded cytotoxicity at 70.5 h? 0.0165

# get_value(readout='cytotoxicity at 70.5 h', item= `COC[C@H]1CNC(=O)[C@@H]2CCN(Cc3cccc(C)n3)CC[C@H]12` ) 0.496

Field request: cytotoxicity at 70.5 h | item: `c1cnn(CCNCc2cnc(N3CCCC3)nc2)c1` -9.32
